# Target Entity: PhoP (Mycobacterium tuberculosis)
pKd: −log10 of the molar value.
Recorded Endpoint: pKd

>>> result_number("[N-]=[N+]=Nc1ccc(C(=O)CSC[C@H](NC(=O)CC[C@H](N)C(=O)O)C(=O)NCC(=O)O)cc1 [NCGC00093547]")
4.90
